target: full-length H1 A/California/07/2009 HA expressed on 293T cells (influenza A virus A/California/07/2009 (H1N1)); assay: flow cytometry, HA-expressing 293T
The reader will find reported max. MFI values listed item by item below.
Hi! Could you send only the number? It should be in MFI, unit omitted.

## Task Tell me the measured max. MFI of P58 (antibody, V domains shown) VH: EVQLVESGGGLVQPGGSLRLSCAASGFTIGGGGIHWVRQAPGKGLEWVAWIWPYWGYTYYADSVKGRFTISADTSKNTAYLQMNSLRAEDTAVYYCARFNSYSYSGVMDYWGQGTLVTVSS VL: DIQMTQSPSSLSASVGDRVTITCRASQDVYSYVAWYQQKPGKAPKLLISSSRGLYSGVPSRFSGSGSGTDFTLTISSLQPEDFATYYCQQYSSFPITFGQGTKVEIKR , please.
## Result 6290

## Task Consider next the binder S29 (antibody, V domains shown) VH: EVQLVESGGGLVQPGGSLRLSCAASGFTISDYWIHWVRQAPGKGLEWVASIWPSGGYTYYADSVKGRFTISADTSKNTAYLQMNSLRAEDTAVYYCARFNWIVGHYMDYWGQGTLVTVSS VL: DIQMTQSPSSLSASVGDRVTITCRASQDVFGGVAWYQQKPGKAPKLLIYWSSWLYSGVPSRFSGSGSGTDFTLTISSLQPEDFATYYCQQYYDGPITFGQGTKVEIKR in the same way.
## Result 6280

## Task Consider next the binder P28 (antibody, V domains shown) VH: EVQLVESGGGLVQPGGSLRLSCAASGFTINNSGIHWVRQAPGKGLEWVASIWPSGGYTYYADSVKGRFTISADTSKNTAYLQMNSLRAEDTAVYYCARFNSSYSSGLMDYWGQGTLVTVSS VL: DIQMTQSPSSLSASVGDRVTITCRASQDVWYSVAWYQQKPGKAPKLLIYFATGLYSGVPSRFSGSGSGTDFTLTISSLQPEDFATYYCQQYFNWPVTFGQGTKVEIKR in the same way.
## Result 168

## Task Consider next the binder S07 (antibody, V domains shown) VH: EVQLVESGGGLVQPGGSLRLSCAASGFTINSSGIHWVRQAPGKGLEWVASIGPSWGSTYYADSVKGRFTISADTSKNTAYLQMNSLRAEDTAVYYCARFGIGDIDVMDYWGQGTLVTVSS VL: DIQMTQSPSSLSASVGDRVTITCRASQDVWGYVAWYQQKPGKAPKLLISYASFLYSGVPSRFSGSGSGTDFTLTISSLQPEDFATYYCQQYFNWPVTFGQGTKVEIKR in the same way.
## Result 10800
